Test system: LG0567-F671-PDC complex spheroids viability;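 also: spheroids exposed to compound for seven days before readout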
Experiment summary: Anticancer human tumor LG0567-F671-PDC patient-derived lung adenocarcinoma cell line growth inhibition [RAS]
Condition label: second compound 0.3 µM; first compound 1 µM; active compounds read low
So I've got a bunch of compounds here, and I need their viability, T/C values.
Numbers only, in %.

Compound	viability, T/C [%]
CCC(CC)c1cc(NC2CCC(N)C2)n2nccc2n1 (stereo not given) + CCn1c(-c2cccnc2C(C)OC)c2c3cc(ccc31)N1CCOC(CC(NC(=O)C(C(C)C)N(C)C(=O)C3(F)CCN(C(=O)C#CC(C)(C)N(C)C)CC3)C(=O)N3CCCC(N3)C(=O)OCC(C)(C)C2)C1	9.25
CC1(O)CCCC1n1c(=O)c(C(F)F)cc2cnc(NC3CCN(S(C)(=O)=O)CC3)nc21 (stereo not given) + CCn1c(-c2cc(N3CCN(C)CC3)cnc2C(C)OC)c2c3cc(ccc31)-c1csc(n1)CC(NC(=O)C1CC1C)C(=O)N1CCCC(N1)C(=O)OCC(C)(C)C2	5.52
CC(C)NCC(C(=O)N1CCN(c2ncnc3c2C(C)CC3O)CC1)c1ccc(Cl)cc1 (stereo not given) + CCn1c(-c2cccnc2C(C)OC)c2c3cc(ccc31)N1CCOC(CC(NC(=O)C(C(C)C)N(C)C(=O)C3(F)CCN(C(=O)C#CC(C)(C)N(C)C)CC3)C(=O)N3CCCC(N3)C(=O)OCC(C)(C)C2)C1	6.59
CC(=O)OC12COC1CC(O)C1(C)C(=O)C(O)C3=C(C)C(OC(=O)C(O)C(NC(=O)OC(C)(C)C)c4ccccc4)CC(O)(C(OC(=O)c4ccccc4)C21)C3(C)C (stereo not given) + CCn1c(-c2cc(N3CCN(C)CC3)cnc2C(C)OC)c2c3cc(ccc31)-c1csc(n1)CC(NC(=O)C1CC1C)C(=O)N1CCCC(N1)C(=O)OCC(C)(C)C2	1.89
CC1(O)CCCC1n1c(=O)c(C(F)F)cc2cnc(NC3CCN(S(C)(=O)=O)CC3)nc21 (stereo not given) + CCn1c(-c2cccnc2C(C)OC)c2c3cc(ccc31)N1CCOC(CC(NC(=O)C(C(C)C)N(C)C(=O)C3(F)CCN(C(=O)C#CC(C)(C)N(C)C)CC3)C(=O)N3CCCC(N3)C(=O)OCC(C)(C)C2)C1	16.2
C[C@@H](NC(=O)c1ncnc(N)c1Cl)c1ncc(C(=O)Nc2cc(C(F)(F)F)c(Cl)cn2)s1 + CCn1c(-c2cccnc2C(C)OC)c2c3cc(ccc31)N1CCOC(CC(NC(=O)C(C(C)C)N(C)C(=O)C3(F)CCN(C(=O)C#CC(C)(C)N(C)C)CC3)C(=O)N3CCCC(N3)C(=O)OCC(C)(C)C2)C1	17.2
NC1c2ccccc2OC12CCN(c1cnc3c(N4CCCc5ncccc54)n[nH]c3n1)CC2 (stereo not given) + CCn1c(-c2cccnc2C(C)OC)c2c3cc(ccc31)N1CCOC(CC(NC(=O)C(C(C)C)N(C)C(=O)C3(F)CCN(C(=O)C#CC(C)(C)N(C)C)CC3)C(=O)N3CCCC(N3)C(=O)OCC(C)(C)C2)C1	1.65
Cc1nc(N2CCC3(CC2)COC(C)C3N)c(CO)nc1Sc1ccnc(N)c1Cl (stereo not given) + CCn1c(-c2cccnc2C(C)OC)c2c3cc(ccc31)N1CCOC(CC(NC(=O)C(C(C)C)N(C)C(=O)C3(F)CCN(C(=O)C#CC(C)(C)N(C)C)CC3)C(=O)N3CCCC(N3)C(=O)OCC(C)(C)C2)C1	3.78

State recorded viability, T/C for all listed compounds.
1. CC(C)NCC(C(=O)N1CCN(c2ncnc3c2C(C)CC3O)CC1)c1ccc(Cl)cc1 (stereo not given) + CCn1c(-c2cc(N3CCN(C)CC3)cnc2C(C)OC)c2c3cc(ccc31)-c1csc(n1)CC(NC(=O)C1CC1C)C(=O)N1CCCC(N1)C(=O)OCC(C)(C)C2
2. Nc1ccn(C2OC(CO)C(O)C2(F)F)c(=O)n1 (stereo not given) + CCn1c(-c2cccnc2C(C)OC)c2c3cc(ccc31)N1CCOC(CC(NC(=O)C(C(C)C)N(C)C(=O)C3(F)CCN(C(=O)C#CC(C)(C)N(C)C)CC3)C(=O)N3CCCC(N3)C(=O)OCC(C)(C)C2)C1

[1.91, 10]

State recorded viability, T/C for all listed compounds.
1. O=C(c1ccc(F)c(F)c1Nc1ccc(I)cc1F)N1CC(O)([C@@H]2CCCCN2)C1 + CCn1c(-c2cccnc2C(C)OC)c2c3cc(ccc31)N1CCOC(CC(NC(=O)C(C(C)C)N(C)C(=O)C3(F)CCN(C(=O)C#CC(C)(C)N(C)C)CC3)C(=O)N3CCCC(N3)C(=O)OCC(C)(C)C2)C1
2. O=C(c1ccc(F)c(F)c1Nc1ccc(I)cc1F)N1CC(O)([C@@H]2CCCCN2)C1 + CCn1c(-c2cc(N3CCN(C)CC3)cnc2C(C)OC)c2c3cc(ccc31)-c1csc(n1)CC(NC(=O)C1CC1C)C(=O)N1CCCC(N1)C(=O)OCC(C)(C)C2
3. C=CC(=O)N1CCN(c2nc(OCC3CCCN3C)nc3c(F)c(-c4nc(N)cc(C)c4C(F)(F)F)c(Cl)cc23)C(C)C1 (stereo not given) + CCn1c(-c2cccnc2C(C)OC)c2c3cc(ccc31)N1CCOC(CC(NC(=O)C(C(C)C)N(C)C(=O)C3(F)CCN(C(=O)C#CC(C)(C)N(C)C)CC3)C(=O)N3CCCC(N3)C(=O)OCC(C)(C)C2)C1
4. C=CC(=O)Nc1cc(Nc2nccc(-c3cn(C)c4ccccc34)n2)c(OC)cc1N(C)CCN(C)C + CCn1c(-c2cccnc2C(C)OC)c2c3cc(ccc31)N1CCOC(CC(NC(=O)C(C(C)C)N(C)C(=O)C3(F)CCN(C(=O)C#CC(C)(C)N(C)C)CC3)C(=O)N3CCCC(N3)C(=O)OCC(C)(C)C2)C1

0.65
0.43
11.6
2.38

Tested on LG0567-F671-PDC complex spheroids viability, the item CC(Nc1ccc2c(c1)OCCn1cc(N3C(=O)OCC3C(F)F)nc1-2)C(N)=O (stereo not given) + CCn1c(-c2cc(N3CCN(C)CC3)cnc2C(C)OC)c2c3cc(ccc31)-c1csc(n1)CC(NC(=O)C1CC1C)C(=O)N1CCCC(N1)C(=O)OCC(C)(C)C2 showed viability, T/C equal to 1.33
